Cited source: ChEMBL document CHEMBL2007661

molecular target: Inhibitor of nuclear factor kappa-B kinase subunit epsilon (Homo sapiens); conditions: at 1 µM
Measured Property: inhibition (%)
Your answer is read as %, so omit the unit and give the number.

Example entries begin here.
                                   compound                         system_under_test  recorded_value
0  OCc1ccc(-c2nc(-c3ccccn3)c(-c3ccc4c(c3)OCO4)[nH]2)cc1  Inhibitor of nuclear factor kappa-B kinase subunit epsilon (Homo sapiens)              -2
1  NS(=O)(=O)c1ccc(N/N=C2\C(=O)Nc3ccc(C(=O)NCCCn4ccnc4)cc32)cc1  Inhibitor of nuclear factor kappa-B kinase subunit epsilon (Homo sapiens)              27
2  CC(C)c1ccc2c(c1)NC(=O)/C2=N/Nc1ccc(S(N)(=O)=O)cc1  Inhibitor of nuclear factor kappa-B kinase subunit epsilon (Homo sapiens)               0
3  CC1=C(C(=O)Nc2ccc3[nH]ncc3c2)C(c2ccc(F)cc2)NC(=O)N1 (stereo not given)  Inhibitor of nuclear factor kappa-B kinase subunit epsilon (Homo sapiens)               2
4  Fc1cccc(COc2ccc(Nc3ncnc4sc(-c5cccs5)cc34)cc2Cl)c1  Inhibitor of nuclear factor kappa-B kinase subunit epsilon (Homo sapiens)              -2

Which inhibition is listed for `CS(=O)(=O)Nc1cccc(-c2ccc3c(NC(=O)C4CC4)n[nH]c3c2)c1` ? 0

Likewise for `CNC(=O)c1cncc(/C=C/c2ccccc2Cl)c1` ? 0

// same read-out, input: `COc1cc(/C=N/Nc2ncnc3[nH]ncc23)ccc1O` 20

Then what about the compound `O=C(Nc1n[nH]c2nc(-c3ccco3)c(Br)cc12)C1CC1` ? 0

Subsequent entry: `Cc1cc(Cl)cc2c1NC(=O)C2=NNc1ccc(S(N)(=O)=O)cc1` 4

* * *

target: Tyrosine-protein kinase Mer (Homo sapiens) (UniProt Q12866); conditions: at 10 µM
Sequence (Q12866 whole entry): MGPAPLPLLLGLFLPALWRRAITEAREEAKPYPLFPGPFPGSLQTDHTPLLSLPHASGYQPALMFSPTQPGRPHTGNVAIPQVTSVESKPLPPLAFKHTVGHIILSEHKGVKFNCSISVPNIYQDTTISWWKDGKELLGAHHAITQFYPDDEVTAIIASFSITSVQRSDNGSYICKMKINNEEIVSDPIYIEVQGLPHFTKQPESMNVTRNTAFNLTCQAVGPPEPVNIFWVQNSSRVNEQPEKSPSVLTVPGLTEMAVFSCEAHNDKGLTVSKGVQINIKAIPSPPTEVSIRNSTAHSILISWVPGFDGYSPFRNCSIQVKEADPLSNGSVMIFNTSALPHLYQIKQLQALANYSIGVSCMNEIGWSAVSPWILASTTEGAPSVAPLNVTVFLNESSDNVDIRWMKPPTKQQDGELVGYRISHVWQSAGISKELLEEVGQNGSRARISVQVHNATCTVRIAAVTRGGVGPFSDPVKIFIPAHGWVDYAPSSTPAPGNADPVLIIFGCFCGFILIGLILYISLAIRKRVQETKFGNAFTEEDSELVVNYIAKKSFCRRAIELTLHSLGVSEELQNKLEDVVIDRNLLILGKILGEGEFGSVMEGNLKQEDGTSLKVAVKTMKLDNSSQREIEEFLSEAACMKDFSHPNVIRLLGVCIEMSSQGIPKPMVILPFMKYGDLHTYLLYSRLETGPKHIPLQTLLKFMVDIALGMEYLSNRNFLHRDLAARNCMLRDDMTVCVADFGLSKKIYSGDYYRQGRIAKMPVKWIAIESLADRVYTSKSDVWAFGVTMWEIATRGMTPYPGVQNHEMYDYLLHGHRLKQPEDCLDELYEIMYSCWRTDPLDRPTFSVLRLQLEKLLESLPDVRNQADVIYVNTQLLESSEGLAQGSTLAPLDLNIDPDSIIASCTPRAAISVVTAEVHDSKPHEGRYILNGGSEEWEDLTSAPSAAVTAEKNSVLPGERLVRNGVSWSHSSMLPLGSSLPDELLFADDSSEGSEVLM
Measured Property: inhibition (%)
Report the value in % with no unit label.

Guide cases for inhibition, answers given:
In [3]: df
Out[3]:
                                   molecule                         system_under_test  measured_property  recorded_value
0  NS(=O)(=O)c1ccc(N/N=C2\C(=O)Nc3ccc(C(=O)NCc4ccncc4)cc32)cc1  Tyrosine-protein kinase Mer (Homo sapiens) (UniProt Q12866)         inhibition              -8
1  CC1(C)CC(n2cnc(-c3ccc(F)cc3)c2-c2ccnc(N)n2)CC(C)(C)N1  Tyrosine-protein kinase Mer (Homo sapiens) (UniProt Q12866)         inhibition              -5

Missing value: inhibition, Tyrosine-protein kinase Mer (Homo sapiens) (UniProt Q12866), entry `CN(C)CCNC(=O)Nc1ccc(N(C)c2ccnc(Nc3ccc(CS(C)(=O)=O)cc3)n2)cc1` . Fill in? 1

Follow-up entry: `O=C(O[C@H]1CN[C@H](C#Cc2cc3ncnc(Nc4ccc5c(ccn5Cc5cc(F)ccc5F)c4)c3s2)C1)N1CCOCC1` 100

And for `NC(=O)c1cccc(Nc2nccc(Nc3cccc(F)c3)n2)c1` ? 50

Repeat with `COc1ccc2ncn(-c3cc(O[C@H](C)c4ccccc4C(F)(F)F)c(C(N)=O)s3)c2c1` 3

What do you get for `COc1cc(Nc2ncc(-c3ccccc3)o2)cc(OC)c1` ? -9

Also COc1ccc2cc(-c3c(-c4ccncc4)nc(-c4ccc([S+](C)[O-])cc4C)n3C)ccc2c1 (centres undefined) , if possible. -5

# iterate: `Cc1nnc(-c2cccc(-c3ccc(C(=O)NCC4CC4)cc3)c2)o1` -4

What about this molecule? `COc1ccc2[nH]c3c4[nH]c5ccc(OC)cc5c4c4c(c3c2c1)C(=O)NC4=O` 5

Also `NS(=O)(=O)c1ccc(-c2ccc3c(NC(=O)C4CC4)n[nH]c3c2)cc1` , if possible. 11

Would you kindly repeat that for `CS(=O)(=O)CCNCc1ccc(-c2ccc3ncnc(Nc4ccc(OCc5ccccc5)c(Br)c4)c3c2)o1` ? 14

Next entry: `COC(=O)Nc1nc2cc(Oc3ccc(NC(=O)Nc4ccccc4)cc3)ccc2[nH]1` 100

What would you report for `CCn1c(-c2nonc2N)nc2cnc(Oc3cccc(NC(=O)c4ccc(OCCN5CCOCC5)cc4)c3)cc21` ? 10

Param item: `CC(C)COC(=O)c1ccc2c(c1)/C(=C/Nc1ccc(S(N)(=O)=O)cc1)C(=O)N2` 0

Query COc1ccc2cc(-c3c(-c4ccncc4)nc(-c4ccc([S+](C)[O-])cc4)n3C)ccc2c1 (centres undefined) next 77

Follow-up entry: `COc1cccc(-n2ncc3c(N/N=C/c4ccc(C)cc4)ncnc32)c1` 25

Also `CNC(=O)c1cccc(C#Cc2cncnc2Nc2ccc(OCc3cccc(F)c3)c(Cl)c2)c1` , if possible. 61

Repeat with `CCc1cccc(CC)c1/C=C/c1cncc(C(=O)NC)c1` -7

* * *

Molecular target: Inhibitor of nuclear factor kappa-B kinase subunit alpha (Homo sapiens)
Sequence (whole entry): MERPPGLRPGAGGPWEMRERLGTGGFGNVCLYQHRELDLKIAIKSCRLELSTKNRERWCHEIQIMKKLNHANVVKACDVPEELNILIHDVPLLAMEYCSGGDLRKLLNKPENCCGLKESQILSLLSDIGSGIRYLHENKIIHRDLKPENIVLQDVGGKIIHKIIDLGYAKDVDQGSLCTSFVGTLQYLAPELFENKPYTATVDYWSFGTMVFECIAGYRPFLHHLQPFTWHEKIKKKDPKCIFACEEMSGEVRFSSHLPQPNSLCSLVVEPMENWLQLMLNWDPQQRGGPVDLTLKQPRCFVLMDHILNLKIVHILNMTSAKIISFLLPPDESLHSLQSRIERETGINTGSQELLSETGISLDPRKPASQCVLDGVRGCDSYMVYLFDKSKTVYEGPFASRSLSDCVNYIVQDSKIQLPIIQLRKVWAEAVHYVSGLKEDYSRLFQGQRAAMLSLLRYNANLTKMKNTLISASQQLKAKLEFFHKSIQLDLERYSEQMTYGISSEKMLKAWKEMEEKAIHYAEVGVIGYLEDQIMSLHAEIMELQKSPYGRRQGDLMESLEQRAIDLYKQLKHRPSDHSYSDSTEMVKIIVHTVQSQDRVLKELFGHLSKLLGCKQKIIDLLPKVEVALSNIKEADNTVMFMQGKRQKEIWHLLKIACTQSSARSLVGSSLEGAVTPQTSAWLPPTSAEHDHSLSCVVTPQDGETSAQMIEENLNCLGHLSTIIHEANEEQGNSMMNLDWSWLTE
Details: at 1 µM
Measured Property: inhibition (%)
Lab book: enter the figure in %, no units written.

                                   compound                         system_under_test  unit  recorded_value
0  COc1cc(N2CCN(C(C)C)CC2)ccc1Nc1nc(Nc2ccc(F)cc2C(N)=O)c2cc[nH]c2n1  Inhibitor of nuclear factor kappa-B kinase subunit alpha (Homo sapiens)     %               3
1  CN1CCN(CCCNc2nc3ccc(Oc4ccc(NC(=O)Nc5cc(C(F)(F)F)ccc5F)cc4)cc3[nH]2)CC1  Inhibitor of nuclear factor kappa-B kinase subunit alpha (Homo sapiens)     %               4
2  Cc1ccc(NC(=O)c2ccnc(N3CCCC3)c2)cc1-c1ccc(C(=O)NCC2CC2)cc1  Inhibitor of nuclear factor kappa-B kinase subunit alpha (Homo sapiens)     %              -8
3  OCCCNc1nccc(-c2c(-c3ccc(F)cc3)nn3cc(C(F)(F)F)ccc23)n1  Inhibitor of nuclear factor kappa-B kinase subunit alpha (Homo sapiens)     %               2
4   Cc1ccc(C(=O)NC2CC2)cc1-c1ccc2[nH]ncc2c1  Inhibitor of nuclear factor kappa-B kinase subunit alpha (Homo sapiens)     %               0
5  COc1cc2ncn(-c3cc(OCCc4ccccc4)c(C(N)=O)s3)c2cc1OC  Inhibitor of nuclear factor kappa-B kinase subunit alpha (Homo sapiens)     %              -2
6  CS(=O)(=O)CCNCc1ccc(-c2ccc3ncnc(Nc4ccc(OCc5ccccc5)cc4)c3c2)o1  Inhibitor of nuclear factor kappa-B kinase subunit alpha (Homo sapiens)     %               3

Now look at this one.
GET /values?readout=inhibition&item= `Clc1ccc(CNc2nccc(-c3cnn4ncccc34)n2)cc1` -1

* * *

target: Inhibitor of nuclear factor kappa-B kinase subunit beta (Homo sapiens); conditions: at 1 µM
Measured Property: inhibition (%)
State just the number; it will be interpreted in %.

Sample records with inhibition:
>>> print(df.to_string())
                                   compound  recorded_value
0  CN1CCN(CCCNc2nc3ccc(Oc4ccc(NC(=O)Nc5cc(C(F)(F)F)ccc5F)cc4)cc3[nH]2)CC1              -5
1  CN(C)c1ccc2c(c1)/C(=C/Nc1ccc(S(N)(=O)=O)cc1)C(=O)N2              -3

# query: inhibition of entry `CCC(=O)Nc1ccc(C)c(-c2ccc(C(=O)NCC3CC3)cc2)c1` -4

Also `CC(C)(CO)CNC(=O)c1ccc2c(c1)/C(=N/Nc1ccc(S(N)(=O)=O)cc1)C(=O)N2` ? -2

// query: `c1ccc(Nc2ncc(-c3ccccc3)o2)cc1` -4

For `O=C1Nc2ccc(I)cc2C1=Cc1cc(Br)c(O)c(Br)c1` then? 0

Could you do the same for `CCn1c(-c2nonc2N)nc2cnc(Oc3cccc(NC(=O)c4ccc(OCCN5CCOCC5)cc4)c3)cc21` , please? 3

Next record, please: `CN1CCC(n2cnc(-c3ccc(F)cc3)c2-c2ccnc(N)n2)CC1` -3

Try `Fc1ccc(-c2ncn(C3CCNCC3)c2-c2ccnc(Oc3ccccc3)n2)cc1` next. -2

Repeat for the following molecule: `NS(=O)(=O)c1ccc(N/N=C2\C(=O)Nc3ccc(C(=O)NCCCn4ccnc4)cc32)cc1` -1
